test system: ATP; assay: switch fluorescence ratio, 500 uM ATP over buffer (Cy3 cluster intensity, sum of 5 cycles each) (fold (ratio)); higher = stronger signal-on switching upon ATP binding; sequences stand for … in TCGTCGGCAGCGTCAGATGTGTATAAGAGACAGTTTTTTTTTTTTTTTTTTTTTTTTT…TC; conditions: aptamer strand: ATP DNA aptamer (quencher-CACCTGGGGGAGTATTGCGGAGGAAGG + anchor), 100 nM annealed; ATP concentration: 500 uM;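 also: ATP exposure 15 min at 22 °C before imaging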
Y means recorded switch fluorescence ratio is 1 or above; N means it is below 1.

{"columns": ["BIOPOLYMER_SEQUENCE", "GROUP_LABEL"],
 "data": [
  ["AACGCTGGGT", "Y"],
  ["TACTATGGGC", "Y"],
  ["CTAGGGCATA", "Y"],
  ["ATTTGAGGTG", "Y"],
  ["TCTGGCCTTC", "Y"],
  ["TTTGAGCTCT", "N"],
  ["TGCTGCCTAC", "Y"],
  ["ACTCTTACTT", "Y"],
  ["AGGCTCATAG", "N"],
  ["TTTAAGCAAG", "Y"],
  ["ATGGCCGAGT", "Y"],
  ["AACTGGTCGC", "Y"],
  ["GCGTAAAAAG", "Y"],
  ["ATTGAAGGCA", "N"],
  ["CGCCCGGGGG", "Y"],
  ["TCAGGGTAGG", "Y"],
  ["ACATCTAGGC", "Y"],
  ["ATGGACCTGC", "Y"],
  ["TCTAATTTCC", "Y"],
  ["TTTTTGTCTT", "N"],
  ["TGTTAATAGC", "Y"],
  ["ATAGTACGCC", "Y"],
  ["GTCTCGTTCC", "Y"],
  ["TTGGCATATG", "Y"],
  ["GGGTGTGCAT", "Y"],
  ["CGGGGAGGGC", "Y"],
  ["CGGTGTGCCT", "N"],
  ["AACGTAAATT", "Y"],
  ["AGGCACCAAC", "Y"],
  ["TTCCGGGGAA", "Y"]
]}
